Measured viability at 24 h, 30 µM, listed per entry for reference.
- PROTOCOL DESCRIPTION: MTT assay, Hek293T non-leukemic control cells
- Type: cell-based
- CONDITION CONTEXT: human, Hek293T cells (non-leukemic control cell line), 30 μM, read-out: Viability rate
- Method: K562, Jurkat, Molt-4, and Nalm-6 cell lines were cultured in RPMI-1640 medium (ECM2001, Euroclone), Reh cell line was cultured in DMEM medium (LM-D1111-Biosera) Hek293T cell line was cultured in IMDM medium (AL070A - HiMedia) supplemented with 10% heat-inactivated fetal bovine serum (F7524-Merck & Co., USA,) penicillin and streptomycin (P4333-Sigma Aldrich). […] Subsequently, viability rate of the cells at each concentration, as percentage, was determined by following formula (1): […]
Kindly answer with a numeric value in %, unit omitted.

Below, each entry is followed by its recorded viability at 24 h, 30 µM result.
[Q] For Cc1ccnc(Nc2cc(NC(=O)c3ccc(CN4CCOCC4)cc3)ccc2C)n1 [Compound 8] , what is its reported viability at 24 h, 30 µM?
[A] 84.9

[Q] Need viability at 24 h, 30 µM, item Cc1ccc(NC(=O)c2ccc(CN3CCN(C)CC3)cc2)cc1Nc1nccc(-c2cccnc2)n1 [imatinib, reference compound]
[A] 53.5

[Q] Need viability at 24 h, 30 µM, item Cc1ccnc(Nc2cc(NC(=O)c3ccc(CN4CCOCC4)cc3)ccc2C)c1 [Compound 9]
[A] 68.9

Next:
[Q] Need viability at 24 h, 30 µM, item Cc1ccnc(Nc2cc(NC(=O)c3ccc(CN4CCN(c5ncccn5)CC4)cc3)ccc2C)n1 [Compound 5]
[A] 55.8

[Q] Field request: viability at 24 h, 30 µM | item: Cc1ccc(NC(=O)c2ccc(CN3CCN(c4ncccn4)CC3)cc2)cc1Nc1cnccn1 [Compound 7]
[A] 72.1

[Q] Quick one: viability at 24 h, 30 µM of COc1ccc(CN2CCN(Cc3ccc(C(=O)Nc4ccc(C)c(Nc5nccc(C)n5)c4)cc3)CC2)c(OC)c1OC [Compound 6] ?
[A] 57.4

[Q] Which viability at 24 h, 30 µM reading was recorded for the molecule COc1ccc(CN2CCN(Cc3ccc(C(=O)Nc4ccc(C)c(Nc5cc(C)ccn5)c4)cc3)CC2)c(OC)c1OC [Compound 10] ?
[A] 82.2
